# Target desc: panel of 442 kinases (Homo sapiens, UniProt P07948)
# Construct: purchased Ambit Biosciences (scanMAXX KINOMEscan)
# Sequence (P07948 whole entry): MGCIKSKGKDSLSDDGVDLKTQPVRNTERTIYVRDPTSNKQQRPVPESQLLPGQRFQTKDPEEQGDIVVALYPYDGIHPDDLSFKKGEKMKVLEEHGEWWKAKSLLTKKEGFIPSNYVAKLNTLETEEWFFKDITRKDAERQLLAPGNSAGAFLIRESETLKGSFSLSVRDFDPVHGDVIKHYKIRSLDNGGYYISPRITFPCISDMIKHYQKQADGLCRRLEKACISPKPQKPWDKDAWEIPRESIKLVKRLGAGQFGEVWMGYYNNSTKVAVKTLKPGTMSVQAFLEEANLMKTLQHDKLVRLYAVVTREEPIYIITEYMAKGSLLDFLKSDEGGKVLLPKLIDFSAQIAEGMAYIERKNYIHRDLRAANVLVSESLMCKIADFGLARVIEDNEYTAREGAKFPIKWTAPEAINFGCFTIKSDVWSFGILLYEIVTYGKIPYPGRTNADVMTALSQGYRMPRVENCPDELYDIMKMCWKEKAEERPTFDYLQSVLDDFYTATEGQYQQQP
# Procedure summary: biochemical
# Type: binding
# Protocol conditions: kinase LYN; 1 µM; read-out: % of control at 1 µM
Recorded endpoint: remaining activity at 1 µM (%)

1. FC(F)c1nc2ccccc2n1-c1nc(N2CCOCC2)nc(N2CCOCC2)n1 100
2. COc1ncc(-c2ccc3nccc(-c4ccnnc4)c3c2)cc1NS(=O)(=O)c1ccc(F)cc1F 100
3. Cn1c(=O)n(-c2ccc(C(C)(C)C#N)cc2)c2c3cc(-c4cnc5ccccc5c4)ccc3ncc21 87
4. Nc1cc(C(F)(F)F)c(-c2cc(N3CCOCC3)nc(N3CCOCC3)n2)cn1 84

---

remaining activity at 1 µM values for the compounds below.
# Target desc: panel of 442 kinases (Homo sapiens, UniProt Q6PHR2)
# Construct: purchased Ambit Biosciences (scanMAXX KINOMEscan)
# Sequence (Q6PHR2 whole entry): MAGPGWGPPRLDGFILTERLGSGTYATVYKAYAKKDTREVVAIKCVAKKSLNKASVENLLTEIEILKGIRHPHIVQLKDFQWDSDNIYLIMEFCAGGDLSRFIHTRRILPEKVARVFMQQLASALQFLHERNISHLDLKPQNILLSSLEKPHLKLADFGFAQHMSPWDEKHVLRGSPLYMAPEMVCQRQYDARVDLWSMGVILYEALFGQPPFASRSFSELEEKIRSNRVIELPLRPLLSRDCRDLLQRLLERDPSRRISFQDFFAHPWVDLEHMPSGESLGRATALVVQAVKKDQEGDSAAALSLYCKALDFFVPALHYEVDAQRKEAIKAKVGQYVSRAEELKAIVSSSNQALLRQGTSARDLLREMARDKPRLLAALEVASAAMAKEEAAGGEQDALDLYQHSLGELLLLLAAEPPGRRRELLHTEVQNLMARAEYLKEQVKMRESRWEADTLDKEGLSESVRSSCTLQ
# Procedure summary: biochemical
# Format: binding
# Protocol conditions: kinase ULK3; 1 µM; read-out: ULK3 (% of control at 1 µM)
Recorded endpoint: remaining activity at 1 µM (%)

1. Nc1cc(C(F)(F)F)c(-c2cc(N3CCOCC3)nc(N3CCOCC3)n2)cn1 100
2. Cn1c(=O)n(-c2ccc(C(C)(C)C#N)cc2)c2c3cc(-c4cnc5ccccc5c4)ccc3ncc21 100
3. COc1ncc(-c2ccc3nccc(-c4ccnnc4)c3c2)cc1NS(=O)(=O)c1ccc(F)cc1F 100
4. FC(F)c1nc2ccccc2n1-c1nc(N2CCOCC2)nc(N2CCOCC2)n1 97

---

remaining activity at 1 µM values for the molecules below.
# Target desc: panel of 442 kinases (Homo sapiens, UniProt Q9UHD2)
# Construct: purchased Ambit Biosciences (scanMAXX KINOMEscan)
# Sequence (Q9UHD2 1-729): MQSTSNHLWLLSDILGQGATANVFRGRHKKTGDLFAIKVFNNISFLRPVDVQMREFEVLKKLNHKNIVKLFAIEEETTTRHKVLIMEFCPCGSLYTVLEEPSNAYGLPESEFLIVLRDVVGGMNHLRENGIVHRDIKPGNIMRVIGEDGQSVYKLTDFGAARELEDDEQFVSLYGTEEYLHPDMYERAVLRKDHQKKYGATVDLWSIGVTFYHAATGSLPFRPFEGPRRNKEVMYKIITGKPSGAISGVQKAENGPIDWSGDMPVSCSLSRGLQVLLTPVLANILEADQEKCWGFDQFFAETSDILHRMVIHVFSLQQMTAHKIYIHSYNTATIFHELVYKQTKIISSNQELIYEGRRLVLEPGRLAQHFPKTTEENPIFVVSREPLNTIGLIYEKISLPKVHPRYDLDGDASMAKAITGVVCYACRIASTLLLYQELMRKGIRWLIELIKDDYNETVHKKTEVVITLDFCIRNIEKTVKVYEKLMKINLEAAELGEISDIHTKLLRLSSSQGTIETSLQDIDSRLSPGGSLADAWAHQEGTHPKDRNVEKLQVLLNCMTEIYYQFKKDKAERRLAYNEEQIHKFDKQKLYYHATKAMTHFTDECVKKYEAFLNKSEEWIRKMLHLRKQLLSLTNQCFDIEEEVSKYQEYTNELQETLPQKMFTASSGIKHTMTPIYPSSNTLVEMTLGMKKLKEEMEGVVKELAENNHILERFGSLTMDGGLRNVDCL
# Procedure summary: biochemical
# Assay type: binding
# Protocol conditions: kinase TBK1; 1 µM; read-out: TBK1 (% of control at 1 µM)
Recorded endpoint: remaining activity at 1 µM (%)

1. Cn1c(=O)n(-c2ccc(C(C)(C)C#N)cc2)c2c3cc(-c4cnc5ccccc5c4)ccc3ncc21 93
2. FC(F)c1nc2ccccc2n1-c1nc(N2CCOCC2)nc(N2CCOCC2)n1 100
3. Nc1cc(C(F)(F)F)c(-c2cc(N3CCOCC3)nc(N3CCOCC3)n2)cn1 99
4. COc1ncc(-c2ccc3nccc(-c4ccnnc4)c3c2)cc1NS(=O)(=O)c1ccc(F)cc1F 100

---

# Target desc: panel of 442 kinases (Homo sapiens, UniProt P10721, T670I/V559D)
# Construct: purchased Ambit Biosciences (scanMAXX KINOMEscan)
# Sequence (P10721 26-976 V559D/T670I): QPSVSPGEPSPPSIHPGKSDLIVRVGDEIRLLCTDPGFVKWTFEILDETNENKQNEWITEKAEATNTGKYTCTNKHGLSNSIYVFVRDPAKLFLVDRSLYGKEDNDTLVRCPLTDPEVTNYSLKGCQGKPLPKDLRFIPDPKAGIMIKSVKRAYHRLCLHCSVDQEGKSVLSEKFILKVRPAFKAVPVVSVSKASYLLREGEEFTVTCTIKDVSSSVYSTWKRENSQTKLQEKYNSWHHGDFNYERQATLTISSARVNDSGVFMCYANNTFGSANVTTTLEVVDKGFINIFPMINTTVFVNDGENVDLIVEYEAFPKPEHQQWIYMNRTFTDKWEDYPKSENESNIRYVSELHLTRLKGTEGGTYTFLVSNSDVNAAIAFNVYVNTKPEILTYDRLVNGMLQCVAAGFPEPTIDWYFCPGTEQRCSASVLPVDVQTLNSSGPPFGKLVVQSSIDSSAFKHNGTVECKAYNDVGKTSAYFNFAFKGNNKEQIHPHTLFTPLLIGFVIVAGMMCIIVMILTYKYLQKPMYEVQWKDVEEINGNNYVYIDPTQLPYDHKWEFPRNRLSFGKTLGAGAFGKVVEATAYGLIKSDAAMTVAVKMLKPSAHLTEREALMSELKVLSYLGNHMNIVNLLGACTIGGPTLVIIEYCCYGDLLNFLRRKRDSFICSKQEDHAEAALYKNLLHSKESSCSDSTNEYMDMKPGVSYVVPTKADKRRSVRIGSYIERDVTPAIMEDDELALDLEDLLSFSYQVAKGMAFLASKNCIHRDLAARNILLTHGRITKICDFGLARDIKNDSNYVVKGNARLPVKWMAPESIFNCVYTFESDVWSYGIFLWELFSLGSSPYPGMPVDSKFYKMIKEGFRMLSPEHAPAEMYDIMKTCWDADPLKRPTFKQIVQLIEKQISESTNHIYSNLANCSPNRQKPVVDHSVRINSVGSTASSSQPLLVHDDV
# Procedure summary: biochemical
# Format: binding
# Protocol conditions: kinase KIT(V559D,T670I); 1 µM; read-out: % of control at 1 µM
remaining activity at 1 µM values for the molecules below.
Recorded endpoint: remaining activity at 1 µM (%)

1. Cn1c(=O)n(-c2ccc(C(C)(C)C#N)cc2)c2c3cc(-c4cnc5ccccc5c4)ccc3ncc21 64
2. Nc1cc(C(F)(F)F)c(-c2cc(N3CCOCC3)nc(N3CCOCC3)n2)cn1 90
3. COc1ncc(-c2ccc3nccc(-c4ccnnc4)c3c2)cc1NS(=O)(=O)c1ccc(F)cc1F 100
4. FC(F)c1nc2ccccc2n1-c1nc(N2CCOCC2)nc(N2CCOCC2)n1 98

---

remaining activity at 1 µM values for the compounds below.
# Target desc: panel of 442 kinases (Homo sapiens)
# Construct: purchased Ambit Biosciences (scanMAXX KINOMEscan)
# Procedure summary: biochemical
# Format: binding
# Protocol conditions: kinase RSK1(Kin.Dom.1-N-terminal); 1 µM; read-out: RSK1(Kin.Dom.1-N-terminal) (% of control at 1 µM)
Recorded endpoint: remaining activity at 1 µM (%)

1) Cn1c(=O)n(-c2ccc(C(C)(C)C#N)cc2)c2c3cc(-c4cnc5ccccc5c4)ccc3ncc21 77
2) FC(F)c1nc2ccccc2n1-c1nc(N2CCOCC2)nc(N2CCOCC2)n1 100
3) Nc1cc(C(F)(F)F)c(-c2cc(N3CCOCC3)nc(N3CCOCC3)n2)cn1 100
4) COc1ncc(-c2ccc3nccc(-c4ccnnc4)c3c2)cc1NS(=O)(=O)c1ccc(F)cc1F 95

---

# Target desc: panel of 442 kinases (Homo sapiens, UniProt P11362)
# Construct: purchased Ambit Biosciences (scanMAXX KINOMEscan)
# Sequence (P11362 22-822): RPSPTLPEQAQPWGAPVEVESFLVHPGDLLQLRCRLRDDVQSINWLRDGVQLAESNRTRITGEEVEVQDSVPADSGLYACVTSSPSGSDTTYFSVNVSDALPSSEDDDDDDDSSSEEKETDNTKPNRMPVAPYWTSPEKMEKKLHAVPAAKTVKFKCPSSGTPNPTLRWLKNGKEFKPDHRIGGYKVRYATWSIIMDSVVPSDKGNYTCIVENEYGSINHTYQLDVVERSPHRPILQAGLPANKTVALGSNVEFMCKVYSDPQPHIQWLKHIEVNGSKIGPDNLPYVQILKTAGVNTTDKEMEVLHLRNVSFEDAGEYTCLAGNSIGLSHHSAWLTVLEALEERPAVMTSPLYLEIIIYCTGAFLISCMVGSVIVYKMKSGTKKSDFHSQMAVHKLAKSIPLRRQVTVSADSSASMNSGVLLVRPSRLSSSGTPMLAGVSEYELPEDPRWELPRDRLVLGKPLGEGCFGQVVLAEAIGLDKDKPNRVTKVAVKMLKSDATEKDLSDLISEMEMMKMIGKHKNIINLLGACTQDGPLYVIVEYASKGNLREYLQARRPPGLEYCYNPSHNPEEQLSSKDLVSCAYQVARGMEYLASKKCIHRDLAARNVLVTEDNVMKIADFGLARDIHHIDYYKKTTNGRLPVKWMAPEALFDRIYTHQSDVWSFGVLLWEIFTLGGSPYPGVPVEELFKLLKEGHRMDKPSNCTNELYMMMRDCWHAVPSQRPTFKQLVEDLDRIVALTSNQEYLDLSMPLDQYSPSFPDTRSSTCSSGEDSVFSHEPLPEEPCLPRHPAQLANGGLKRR
# Procedure summary: biochemical
# Format: binding
# Protocol conditions: FGFR1; 1 µM; read-out: % of control at 1 µM

Molecule	Target desc	remaining activity at 1 µM [%]
Nc1cc(C(F)(F)F)c(-c2cc(N3CCOCC3)nc(N3CCOCC3)n2)cn1 [Buparlisib]	panel of 442 kinases (Homo sapiens, UniProt P11362)	100
Cn1c(=O)n(-c2ccc(C(C)(C)C#N)cc2)c2c3cc(-c4cnc5ccccc5c4)ccc3ncc21 [Dactolisib]	panel of 442 kinases (Homo sapiens, UniProt P11362)	94
FC(F)c1nc2ccccc2n1-c1nc(N2CCOCC2)nc(N2CCOCC2)n1 [ZSTK474]	panel of 442 kinases (Homo sapiens, UniProt P11362)	100
COc1ncc(-c2ccc3nccc(-c4ccnnc4)c3c2)cc1NS(=O)(=O)c1ccc(F)cc1F [Omipalisib]	panel of 442 kinases (Homo sapiens, UniProt P11362)	94

---

# Target desc: panel of 442 kinases (Homo sapiens, UniProt Q56UN5)
# Construct: purchased Ambit Biosciences (scanMAXX KINOMEscan)
# Sequence (Q56UN5 whole entry): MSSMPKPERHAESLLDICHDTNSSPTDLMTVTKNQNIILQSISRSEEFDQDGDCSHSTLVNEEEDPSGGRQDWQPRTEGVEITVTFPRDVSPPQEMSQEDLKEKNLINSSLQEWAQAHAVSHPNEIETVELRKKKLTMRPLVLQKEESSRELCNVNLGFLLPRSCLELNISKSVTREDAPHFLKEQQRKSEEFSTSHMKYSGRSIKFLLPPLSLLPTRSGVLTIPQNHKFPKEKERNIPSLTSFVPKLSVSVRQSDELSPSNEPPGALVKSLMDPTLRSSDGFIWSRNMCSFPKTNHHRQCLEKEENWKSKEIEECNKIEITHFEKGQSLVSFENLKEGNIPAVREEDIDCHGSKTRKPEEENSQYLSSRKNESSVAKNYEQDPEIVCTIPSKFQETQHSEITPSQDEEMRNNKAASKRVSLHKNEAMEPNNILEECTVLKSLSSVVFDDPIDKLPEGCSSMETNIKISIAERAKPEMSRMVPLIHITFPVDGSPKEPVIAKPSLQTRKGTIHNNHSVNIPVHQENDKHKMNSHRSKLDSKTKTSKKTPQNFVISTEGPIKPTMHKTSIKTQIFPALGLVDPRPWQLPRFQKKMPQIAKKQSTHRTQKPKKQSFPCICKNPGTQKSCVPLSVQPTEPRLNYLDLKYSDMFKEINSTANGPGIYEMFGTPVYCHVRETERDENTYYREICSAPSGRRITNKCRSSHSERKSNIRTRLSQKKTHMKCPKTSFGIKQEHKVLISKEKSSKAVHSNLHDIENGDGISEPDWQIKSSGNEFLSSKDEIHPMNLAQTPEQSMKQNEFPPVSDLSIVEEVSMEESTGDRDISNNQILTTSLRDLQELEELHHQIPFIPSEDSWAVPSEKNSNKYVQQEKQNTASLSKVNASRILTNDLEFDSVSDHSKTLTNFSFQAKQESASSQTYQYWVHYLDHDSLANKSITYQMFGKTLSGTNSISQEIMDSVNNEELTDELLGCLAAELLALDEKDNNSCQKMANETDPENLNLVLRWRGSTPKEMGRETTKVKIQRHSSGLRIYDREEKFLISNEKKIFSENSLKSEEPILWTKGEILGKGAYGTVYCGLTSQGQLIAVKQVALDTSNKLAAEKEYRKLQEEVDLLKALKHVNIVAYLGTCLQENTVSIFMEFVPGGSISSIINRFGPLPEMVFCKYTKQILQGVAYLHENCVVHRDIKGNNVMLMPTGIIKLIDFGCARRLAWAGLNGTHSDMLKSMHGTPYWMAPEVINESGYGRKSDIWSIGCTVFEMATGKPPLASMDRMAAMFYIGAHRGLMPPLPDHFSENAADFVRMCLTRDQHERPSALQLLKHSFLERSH
# Procedure summary: biochemical
# Type: binding
# Protocol conditions: kinase YSK4; 1 µM; read-out: YSK4 (% of control at 1 µM)
Recorded endpoint: remaining activity at 1 µM (%)

1) Nc1cc(C(F)(F)F)c(-c2cc(N3CCOCC3)nc(N3CCOCC3)n2)cn1 72
2) COc1ncc(-c2ccc3nccc(-c4ccnnc4)c3c2)cc1NS(=O)(=O)c1ccc(F)cc1F 77
3) FC(F)c1nc2ccccc2n1-c1nc(N2CCOCC2)nc(N2CCOCC2)n1 100
4) Cn1c(=O)n(-c2ccc(C(C)(C)C#N)cc2)c2c3cc(-c4cnc5ccccc5c4)ccc3ncc21 28

---

remaining activity at 1 µM values for the molecules below.
# Target desc: panel of 442 kinases (Homo sapiens, UniProt Q9HCP0)
# Construct: purchased Ambit Biosciences (scanMAXX KINOMEscan)
# Sequence (Q9HCP0 whole entry): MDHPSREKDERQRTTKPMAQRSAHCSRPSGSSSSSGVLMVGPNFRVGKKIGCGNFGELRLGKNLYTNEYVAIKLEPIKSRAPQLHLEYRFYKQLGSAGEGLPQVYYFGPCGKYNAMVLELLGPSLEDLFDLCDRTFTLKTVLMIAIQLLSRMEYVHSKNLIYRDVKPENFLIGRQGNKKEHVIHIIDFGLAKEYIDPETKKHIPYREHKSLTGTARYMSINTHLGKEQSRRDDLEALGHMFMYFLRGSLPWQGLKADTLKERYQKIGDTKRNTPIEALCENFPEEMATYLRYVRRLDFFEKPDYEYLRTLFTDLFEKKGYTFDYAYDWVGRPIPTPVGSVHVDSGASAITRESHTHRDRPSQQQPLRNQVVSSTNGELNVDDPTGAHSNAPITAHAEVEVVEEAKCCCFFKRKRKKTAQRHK
# Procedure summary: biochemical
# Assay type: binding
# Protocol conditions: CSNK1G1; 1 µM; read-out: % of control at 1 µM
Recorded endpoint: remaining activity at 1 µM (%)

1. FC(F)c1nc2ccccc2n1-c1nc(N2CCOCC2)nc(N2CCOCC2)n1 81
2. Nc1cc(C(F)(F)F)c(-c2cc(N3CCOCC3)nc(N3CCOCC3)n2)cn1 95
3. COc1ncc(-c2ccc3nccc(-c4ccnnc4)c3c2)cc1NS(=O)(=O)c1ccc(F)cc1F 100
4. Cn1c(=O)n(-c2ccc(C(C)(C)C#N)cc2)c2c3cc(-c4cnc5ccccc5c4)ccc3ncc21 67

---

remaining activity at 1 µM values for the compounds below.
# Target desc: panel of 442 kinases (Homo sapiens)
# Construct: purchased Ambit Biosciences (scanMAXX KINOMEscan)
# Procedure summary: biochemical
# Type: binding
# Protocol conditions: kinase ULK1; 1 µM; read-out: ULK1 (% of control at 1 µM)

Compound	remaining activity at 1 µM
FC(F)c1nc2ccccc2n1-c1nc(N2CCOCC2)nc(N2CCOCC2)n1 [ZSTK474]	69%
COc1ncc(-c2ccc3nccc(-c4ccnnc4)c3c2)cc1NS(=O)(=O)c1ccc(F)cc1F [Omipalisib]	99%
Nc1cc(C(F)(F)F)c(-c2cc(N3CCOCC3)nc(N3CCOCC3)n2)cn1 [Buparlisib]	100%
Cn1c(=O)n(-c2ccc(C(C)(C)C#N)cc2)c2c3cc(-c4cnc5ccccc5c4)ccc3ncc21 [Dactolisib]	88%
